Data credit: the nanobody polyreactivity screen of Harvey et al. (2022)

assay: yeast display, Sf9 membrane polyspecificity reagent, FACS + sequencing; frameworks hold sequencing errors
readout.label: polyreactivity (PSR sort gate)

Worked cases, answers included:
[
  {
    "record.sequence": "QVQLVESAGGIVQAGGSLRLRCAASGRTVVNSMGWYRQAPGKERELVAAISTNGGRTYYADSVKWRFTISRDNAKNTVYLQMNSLKPEDTAVYYCAKVLGIRPTYYYWGQGYQVTVSS",
    "polyreactivity (PSR sort gate)": "high polyreactivity"
  },
  {
    "record.sequence": "QVQLVESGGGLVQAGGSLRLSCAASGRTFYYYYTMGWYRQAPGKERELVAAISRSGSTNYADSVKGRFTISRDNAKNTVYLQMNSLKPEDTAVYYCARSYRSDGSRFGYWGQGTQVTVSS",
    "polyreactivity (PSR sort gate)": "low polyreactivity"
  },
  {
    "record.sequence": "QVQLVESGGGLVQAGGSLRLSCAASGFIFPPYAMGWYRQAPGKERELVAAIRISGGSTYYADSVKGRFTISRDNAKNTVYLQMNSLKPEDTAVYYCAARYVSSTPAYAYYYWGQGTQVTVSS",
    "polyreactivity (PSR sort gate)": "high polyreactivity"
  },
  {
    "record.sequence": "QVQLVESGVGLVQAGGSLRLSCAASGSTIQYYAQGRYRQAPGKEREFVAAISISGGSTYYADSLKGRFTISRDNAKNTVYLQMNSLIPEDSEVYYCAARKKEYKPGKYWGQGTQVTVSS",
    "polyreactivity (PSR sort gate)": "low polyreactivity"
  },
  {
    "record.sequence": "QVQLGESGGGLVQAGGSLRLRCAASGYIITYNAMGWYRQAPGKERELVAAISSGGSTNYADSVKGRFTISRDNAKITVYLQMNSLKPEDTAVFYCAAPVWTYDDYWGQGSQVTVSS",
    "polyreactivity (PSR sort gate)": "low polyreactivity"
  }
]

// next entry
Give the measured polyreactivity (PSR sort gate) of QVQLVESGGGLVQAGGSLRLSCAASGRIFGYAMGWCRQAPRKERELVAAITSSGGRTYYADSVKGRFTISRDNAKNTVYLQMNSLKPEDTAVYYCAKKWPVYRSYDYWGQGTQVTVSS .
high polyreactivity

----------
assay: yeast display, Sf9 membrane polyspecificity reagent, FACS + sequencing; frameworks hold sequencing errors
readout.label: polyreactivity (PSR sort gate)

Worked cases, answers included:
[
  {
    "record.sequence": "QVQLVESGGGLVQAGGSLRISCAASGSIFWDNVMGWYRQAPGKERELVADIDSWDGGSTYYADSVKGRFTISRDNAKNTVYLQMNSLKPEDTAVYYCNTDVLWWRGGDDYWGQGTQVTVSS",
    "polyreactivity (PSR sort gate)": "low polyreactivity"
  },
  {
    "record.sequence": "QVQLVESGGRLVQAGGSLRLSCAASGFIFWSYAMGWYRQARGKERELVAAISWSGGRTYYADSVKGRFTISRDNAKNTVYLQMNSLKPEDTAVYYCAAVKRYSSQYPALDYWGQGTQVTVSS",
    "polyreactivity (PSR sort gate)": "high polyreactivity"
  },
  {
    "record.sequence": "QVQLVESGGGLVQAGGSLRLSCAASGRTFDEYAMGWYRQAPGKERVLVAAIDSGGSTTYADSVKGRFTISRDNAKNTVYLQINSLKPEDTAVYYCAASYPYWYITPRKFEYWGQGTQVTVSS",
    "polyreactivity (PSR sort gate)": "low polyreactivity"
  },
  {
    "record.sequence": "QVQLVESGGGLVQAGGSLRLSCAASGLTFGRYAMGWYRQAPGKERELVAAITARVGRTYYADSVKGRFTISRDNAKNTVYLQMNSLKPEDTAVYYCAAGPSYYWYSHEKYDYWGQGTQVTVSS",
    "polyreactivity (PSR sort gate)": "high polyreactivity"
  },
  {
    "record.sequence": "QVQLVESGGVLVQAGGSLRLTCAASGSNFVTNAMGWYRQAPGKERELVAAISVSGGSTYYADSVKGRFTISRDNAKNTVYLQMNSLKPEDTAVYYCNTVRSPAGHDYWGQGTQVTVSS",
    "polyreactivity (PSR sort gate)": "low polyreactivity"
  },
  {
    "record.sequence": "QVQLVESGGGLVQAGGSLRLSCAASGNILFSYAMGWYRQAPRKERELVAAISSSGGSTYYADSVKGRFTISRDNAKNNVYLQMNSLKPEDTAVYYCARYSFYKYDYWGQGTQVTVSS",
    "polyreactivity (PSR sort gate)": "high polyreactivity"
  },
  {
    "record.sequence": "QVQLVETGGGLVQAGGSLRLSCASSGRTCVDNTMGWYRQEPGKESELVATITSGDSTNYEESVKGRFTISRDNAKYTVYLQMNSLKPEDTAVYYCAAVTNWYYYYTHRMEYWGQGTQVTVSS",
    "polyreactivity (PSR sort gate)": "low polyreactivity"
  },
  {
    "record.sequence": "QVQLVESGGGLVQAGGSLRLSCAASGSIFAYYAMGWYRQAPGKERELVADITSSGGITYYADSVKGRFTISRDNAKNTVYLQMISLKPEDTAVYYCNADSWAIGGGSYPFDYWGQGTQVTVSS",
    "polyreactivity (PSR sort gate)": "low polyreactivity"
  }
]

Give the measured polyreactivity (PSR sort gate) of QVQLVESGGGLVQAGGSLRLSCDASGRIFHGNAMGWYRQAPGKEREFVAAITYGGGSTYYADSVKGRFTISRDNAKNTVYLQMNSLKPEDTAVYYCNARGARSNGVRGYYSKLNYWGQGTQVTVSS .
high polyreactivity

HVQLVESGGGLVQAGGSLRLICAASGGTFAGYSMGWYRQAPGKDRELVAAITYRSSTTYYADSVKGRFTISRDNAKNTVYLQMNSLKPEDTAVYYCAARTRGTGRNLDYWGQGTQVNVSS ?
high polyreactivity

QVQLVESGGGLVQAGGSLRLSCAASGSIFRGYAMGWYRQAPGKERELVAAITSSGARTFYADSVKGRFTISRDNAKNTVYFLMKSLRPEDTAVYYCDAVSANQDFDSWGQGTQVSVSS ?
high polyreactivity
